biological target: Proteasome Macropain subunit MB1 (Homo sapiens, UniProt P28074); assay: Inhibition of human 20S proteasome beta5 subunit using Suc-LLVY-AMC as substrate by fluorescence assay
Sequence (P28074 whole entry): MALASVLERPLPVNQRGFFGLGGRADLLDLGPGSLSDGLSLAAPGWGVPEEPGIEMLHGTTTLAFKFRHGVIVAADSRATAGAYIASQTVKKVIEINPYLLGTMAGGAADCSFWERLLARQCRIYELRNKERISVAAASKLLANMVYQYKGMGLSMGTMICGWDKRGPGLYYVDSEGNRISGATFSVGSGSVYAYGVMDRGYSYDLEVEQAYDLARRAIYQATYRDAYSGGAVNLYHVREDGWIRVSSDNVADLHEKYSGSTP
quantity: Ki (µM)
Give bare numbers, in µM.

Worked set:
Name the recorded Ki of the compound listed here: COC(=O)[C@@H](NC(=O)N[C@H](C(=O)N[C@H]1CCCCNC(=O)/C=C/[C@H](Cc2ccc(C)cc2)NC1=O)C(C)C)C(C)C 1.14

Name the recorded Ki of the compound listed here: COC(=O)[C@@H](NC(=O)N[C@H](C(=O)N[C@H]1CCCCNC(=O)/C=C/[C@H](Cc2cccc(F)c2)NC1=O)C(C)C)C(C)C 0.592

Name the recorded Ki of the compound listed here: COC(=O)[C@@H](NC(=O)N[C@H](C(=O)N[C@H]1CCCCNC(=O)/C=C/[C@H](Cc2ccccc2Cl)NC1=O)C(C)C)C(C)C 2.11

Each of the following entries comes with a recorded value; kindly state Ki for each.
1. COC(=O)[C@@H](NC(=O)N[C@@H](Cc1ccccc1)C(=O)N[C@H]1CCCCNC(=O)/C=C/[C@H](Cc2c[nH]c3ccccc23)NC1=O)C(C)C
2. COC(=O)[C@@H](NC(=O)N[C@@H](Cc1ccccc1)C(=O)N[C@H]1CCCCNC(=O)/C=C/[C@H](Cc2ccccc2)NC1=O)C(C)C
3. COC(=O)[C@@H](NC(=O)N[C@H](C(=O)N[C@H]1CCCCNC(=O)/C=C/[C@H](Cc2cccc(Cl)c2)NC1=O)C(C)C)C(C)C

1: 0.385; 2: 0.447; 3: 0.963

====

I'd be grateful if you could share measured growth at 10 µM for these entries.
test system: SF-268; assay: Cytotoxicity against human SF268 cells assessed as cell growth at 10 uM after 48 hrs relative to control; format: functional; conditions: SF-268, 48 h, read-out: Activity
One number for each entry, in %.

Name the recorded growth at 10 µM of the compound listed here: COC(=O)[C@@H](NC(=O)N[C@@H](Cc1ccccc1)C(=O)N[C@H]1CCCCNC(=O)/C=C/[C@H](Cc2ccccc2)NC1=O)C(C)C 10.1

Each of the following entries comes with a recorded value; kindly state growth at 10 µM for each.
1. COC(=O)[C@@H](NC(=O)N[C@H](C(=O)N[C@H]1CCCCNC(=O)/C=C/[C@H](C(C)C)NC1=O)C(C)C)C(C)C
2. COC(=O)[C@@H](NC(=O)N[C@H](C(=O)N[C@H]1CCCCNC(=O)/C=C/[C@H](Cc2c[nH]c3ccccc23)NC1=O)C(C)C)C(C)C

-20.1
9.42

Each of the following entries comes with a recorded value; kindly state growth at 10 µM for each.
1. COC(=O)[C@@H](NC(=O)N[C@@H](Cc1ccccc1)C(=O)N[C@H]1CCCCNC(=O)/C=C/[C@H](Cc2c[nH]c3ccccc23)NC1=O)C(C)C
2. COC(=O)[C@@H](NC(=O)N[C@@H](Cc1ccccc1)C(=O)N[C@H]1CCCCNC(=O)/C=C/[C@H](C(C)C)NC1=O)C(C)C

78.8
30

====

I'd be grateful if you could share measured growth at 10 µM for these entries.
test system: OVCAR-5; experiment: Cytotoxicity against human OVCAR5 cells assessed as cell growth at 10 uM after 48 hrs relative to control; format: functional; details: OVCAR-5, 48 h, read-out: Activity
Numbers only, in %.

Fill in: growth at 10 µM on OVCAR-5, entry COC(=O)[C@@H](NC(=O)N[C@H](C(=O)N[C@H]1CCCCNC(=O)/C=C/[C@H](C(C)C)NC1=O)C(C)C)C(C)C 58.4

Fill in: growth at 10 µM on OVCAR-5, entry COC(=O)[C@@H](NC(=O)N[C@@H](Cc1ccccc1)C(=O)N[C@H]1CCCCNC(=O)/C=C/[C@H](C(C)C)NC1=O)C(C)C 104

Fill in: growth at 10 µM on OVCAR-5, entry COC(=O)[C@@H](NC(=O)N[C@@H](Cc1ccccc1)C(=O)N[C@H]1CCCCNC(=O)/C=C/[C@H](Cc2ccccc2)NC1=O)C(C)C 87

Fill in: growth at 10 µM on OVCAR-5, entry COC(=O)[C@@H](NC(=O)N[C@H](C(=O)N[C@H]1CCCCNC(=O)/C=C/[C@H](Cc2c[nH]c3ccccc23)NC1=O)C(C)C)C(C)C 61.1

Continuing:
Fill in: growth at 10 µM on OVCAR-5, entry COC(=O)[C@@H](NC(=O)N[C@@H](Cc1ccccc1)C(=O)N[C@H]1CCCCNC(=O)/C=C/[C@H](Cc2c[nH]c3ccccc23)NC1=O)C(C)C 113
